Origin of measurements: PubChem BioAssay (NCI)

- assay.remarks: NCI Yeast Anticancer Drug Screen. Data for the sgs1 mgt1 strain (AID 161);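 also: 0% = growth of cultures given vehicle only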
- condition: S. cerevisiae sgs1 mgt1 strain, at 50.0 µM, active compounds read high
About 79,000 compounds went through this panel and 15% of them were active in at least one assay; those are over-represented in the sample as a whole. The source made the active and inactive calls. Rule as the data show it: active = growth inhibition above about 70%; inactive = the rest.
endpoint.label: growth inhibition

[
  {
    "compound": "NNC1=Nc2ccc(Cl)cc2C(=S)N2CSCC12 (stereo unspecified)",
    "observed.result": "-11.7% (inactive)"
  },
  {
    "compound": "CCC(C)C(=O)OC1C(=O)OC2CC3C(C)=CC(=O)C(O)C3(C)C3C4(O)OCC23C1C(C)C4O (stereo unspecified)",
    "observed.result": "90% (active)"
  },
  {
    "compound": "O=C1CCC(=O)N1Cc1ccc(Cl)cc1",
    "observed.result": "-1.1% (inactive)"
  },
  {
    "compound": "CCN(CC)c1ccc(/C=N\\NC(=S)N/N=C/c2ccc(N(CC)CC)cc2)cc1",
    "observed.result": "7.9% (inactive)"
  },
  {
    "compound": "Cc1cc2c(C)[nH]nc2c(C(=O)O)c1C",
    "observed.result": "6.35% (inactive)"
  },
  {
    "compound": "CC(C)OP(=O)(OC(C)C)/C(F)=N/Nc1ccc([N+](=O)[O-])cc1",
    "observed.result": "23.1% (inactive)"
  },
  {
    "compound": "CC(=O)NCCc1ccc2c(c1)[nH]c1ccccc12",
    "observed.result": "-8.75% (inactive)"
  },
  {
    "compound": "C/C(=N\\NC(=O)c1ccncc1)c1cccc(F)c1",
    "observed.result": "-51.2% (inactive)"
  },
  {
    "compound": "CCC(C)Nc1ncnc2c1cnn2C (stereo unspecified)",
    "observed.result": "-16.8% (inactive)"
  },
  {
    "compound": "CCC(=O)N1NC(=O)C(CC)(CC)C1=O",
    "observed.result": "11.1% (inactive)"
  },
  {
    "compound": "O=c1oc2ccc3ccccc3c2cc1-c1c[nH]c2ccccc12",
    "observed.result": "15.2% (inactive)"
  },
  {
    "compound": "C=CS(=O)(=O)CCCCCCCCCCCCCC",
    "observed.result": "28.9% (inactive)"
  },
  {
    "compound": "CCC(C)(C)C(O)c1ccc2c(c1)OCO2 (stereo unspecified)",
    "observed.result": "4.1% (inactive)"
  },
  {
    "compound": "CN(C)C(=O)Nc1cccc2nsnc12",
    "observed.result": "11% (inactive)"
  },
  {
    "compound": "NC(=S)NNC(=O)CCC(=O)Nc1ccccc1Cl",
    "observed.result": "-11.8% (inactive)"
  },
  {
    "compound": "CCCCCCCCCCCCSCC(=O)O",
    "observed.result": "14.2% (inactive)"
  },
  {
    "compound": "CCCCCCCCCCCCCCCCOc1ccc2ccccc2c1",
    "observed.result": "14.9% (inactive)"
  },
  {
    "compound": "CC12CC(C/C1=N/O)C(C)(C)C2 (stereo unspecified)",
    "observed.result": "1.55% (inactive)"
  },
  {
    "compound": "CCCCOC(=O)c1ccc(O)cc1.[Zn+2]",
    "observed.result": "-16.6% (inactive)"
  },
  {
    "compound": "N=c1ncn(Cc2ccccc2)c2nc[nH]c12",
    "observed.result": "1.3% (inactive)"
  },
  {
    "compound": "CC(C)CC1CC(=O)NC1C(=O)O (stereo unspecified)",
    "observed.result": "-13.2% (inactive)"
  },
  {
    "compound": "CN1CCC2c3c([nH]c4ccccc34)C(C)(C)OC2C1 (stereo unspecified)",
    "observed.result": "-33.6% (inactive)"
  },
  {
    "compound": "CCSc1ccc2c3c(cccc13)C(=O)N(CCc1ccccn1)C2=O",
    "observed.result": "11.8% (inactive)"
  },
  {
    "compound": "CCc1[nH]c2ccc(C)cc2c1C(=O)c1cccnc1",
    "observed.result": "16.4% (inactive)"
  },
  {
    "compound": "O=C1C=CC(=O)c2c1ccc1c3ccccc3n(CCCCCn3c4ccccc4c4ccc5c(c43)C(=O)C=CC5=O)c21",
    "observed.result": "-18.2% (inactive)"
  },
  {
    "compound": "CCc1c(Cc2[nH]c(C=O)c(C)c2CC)[nH]c(C=O)c1C",
    "observed.result": "11.2% (inactive)"
  }
]
